Measured pKi accompanies every entry in the list below.
Molecular target: T1, human mesotrypsin (catalytically active) (human, UniProt P35030 81-304)
T1 construct: mature; In the invasion assays it is the endogenous enzyme of PC3-M cells; also called active mesotrypsin; PRSS3 gene product
T1 sequence (looked up): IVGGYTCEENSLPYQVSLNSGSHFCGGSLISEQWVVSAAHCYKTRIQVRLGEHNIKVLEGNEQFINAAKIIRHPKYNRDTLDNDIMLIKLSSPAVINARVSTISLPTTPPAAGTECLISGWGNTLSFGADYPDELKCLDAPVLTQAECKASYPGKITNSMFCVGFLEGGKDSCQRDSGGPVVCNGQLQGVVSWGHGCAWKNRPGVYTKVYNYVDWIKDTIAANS
Experiment: inhibition constant of soluble variant; target taken as mesotrypsin
# log scale: pKi equals minus log10 of the concentration in mol/L

[
  {
    "binder": "APPIM17C/I18F/F34C (SEQ ID NO: 12), soluble (designed binder, not shown: AvrII site residues and C-terminal HIS6 tag) EVCSEQAETGPCRACFSRWYFDVTEGKCAPFCYGGCGGNRNNFDTEEYCMAVCGSAI",
    "pKi": 10.28
  },
  {
    "binder": "APPIT11V/M17G/I18F/F34V (SEQ ID NO: 9), soluble (designed binder, not shown: AvrII site residues and C-terminal HIS6 tag) EVCSEQAEVGPCRAGFSRWYFDVTEGKCAPFVYGGCGGNRNNFDTEEYCMAVCGSAI",
    "pKi": 10.30
  }
]

Q: Tell me its pKi given APPIM17G/I18F/K29L/F34V (SEQ ID NO: 10), soluble (designed binder, not shown: AvrII site residues and C-terminal HIS6 tag) EVCSEQAETGPCRAGFSRWYFDVTEGLCAPFVYGGCGGNRNNFDTEEYCMAVCGSAI as the entry.
Ans: 10.05

Q: Tell me its pKi given APPIT11C/M17G/I18F/F34C (SEQ ID NO: 11), soluble (designed binder, not shown: AvrII site residues and C-terminal HIS6 tag) EVCSEQAECGPCRAGFSRWYFDVTEGKCAPFCYGGCGGNRNNFDTEEYCMAVCGSAI as the entry.
Ans: 6.83
